system: WPMY1-GM130-SQSTM1; experiment: phenotypically active (imaging signature differs from DMSO and reproducible) at any of 0.3-9 uM (binary (1 = active, 0 = inactive)); higher = active; settings: treatment time: 24 h
Structures can show the parent of a compound that is named as a salt.
Pick from active, inactive when you respond.

Some entries whose results are on file:
> print(dat)
                                    molecule  assigned.category
 1  O=C(Nc1cccnn1)N1CCN(c2nccc(-c3ccc(F)c(F)c3)n2)CC1           inactive
 2  NS(=O)(=O)c1cc(C2(O)NC(=O)c3ccccc32)ccc1Cl (stereo not given) [chlorthalidone]           inactive
 3  C#C[C@]1(O)CC[C@H]2[C@@H]3CCc4cc(OC5CCCC5)ccc4[C@H]3CC[C@@]21C [quinestrol]           inactive
 4  CCN(CC)CCNC(=O)c1cc(Cl)c(N)cc1OC [metoclopramide]           inactive
 5  CN(C(=O)CCCOc1ccc2[nH]c(=O)ccc2c1)C1CCCCC1 [Cilostamide]           inactive
 6  O=C(O)[C@H](Cc1c[nH]c2ccccc12)N1C(=O)c2ccccc2C1=O           inactive
 7  OC[C@H]1O[C@@H](n2cnc3c(NCc4ccco4)ncnc32)[C@H](O)[C@@H]1O [Kinetin riboside]             active
 8  COc1cc(C(=O)NC2CCN(C)CC2)c(F)cc1Nc1ncc2c(n1)N(C1CCCC1)CC(F)(F)C(=O)N2C [TAK 960 hydrochloride]             active
 9  O=C1NCCCC1C(=O)NCCc1c[nH]c2ccc(O)cc12 (stereo not given)           inactive
10  Cc1ccc(C(=O)c2cc(O)c(O)c([N+](=O)[O-])c2)cc1 [tolcapone]           inactive

Just curious, what result did O=C(O)c1cc(/N=N/c2ccc(O)c(C(=O)O)c2)ccc1O [olsalazine] get here?
inactive

Just curious, what result did COc1ccnc(CS(=O)c2nc3cc(OC(F)F)ccc3[nH]2)c1OC (stereo not given) [pantoprazole] get here?
inactive

Just curious, what result did `Cn1cc(-c2[nH]c3cc(NC(=O)[C@H](N)C4CCCCC4)cc4c3c2C=NNC4=O)cn1` get here?
active

Just curious, what result did CCOC(=O)Nc1cc(-c2ccc(C)c(NS(C)(=O)=O)c2)nn2c(C)nnc12 [Bromosporine] get here?
active

Just curious, what result did CN1CCc2cccc3c2[C@H]1Cc1ccc(O)c(O)c1-3 [r(-)-apomorphine] get here?
active

Just curious, what result did `CCCOc1ccc(CCc2nc3cc(-c4c(C)noc4C)ccc3n2CCN2CCOCC2)cc1` get here?
inactive

Just curious, what result did COC(=O)C1=C(C)NC(C)=C(C(=O)OCCN(C)Cc2ccccc2)C1c1cccc([N+](=O)[O-])c1 (stereo not given) [nicardipine] get here?
active

Just curious, what result did OCCN1C[C@H](O)[C@@H](O)[C@H](O)[C@H]1CO [Miglitol] get here?
inactive

Just curious, what result did COc1ccc([C@@H]2CC(=O)c3c(O)cc(O)cc3O2)cc1O [Hesperetin] get here?
inactive

Just curious, what result did CN/C(=C/[N+](=O)[O-])NCCSCc1csc(CN(C)C)n1 [nizatidine] get here?
inactive

Just curious, what result did c1ccc2c(c1)CN1CCCC1=N2 [Desoxypeganine Hydrochloride] get here?
inactive

Just curious, what result did `O=C(NOC[C@H](O)CO)c1ccc(F)c(F)c1Nc1ccc(I)cc1F` get here?
active

Just curious, what result did CCCCCCCCCCCCC/C=C/[C@H](O)[C@H](N)CO [D-erythro-Sphingosine (synthetic)] get here?
active

Just curious, what result did CN(N=O)C(=O)N[C@@H](C=O)[C@@H](O)[C@H](O)[C@H](O)CO.CN(N=O)C(=O)N[C@H]1C(O)O[C@H](CO)[C@@H](O)[C@@H]1O [streptozotocin] get here?
inactive

Just curious, what result did `c1cc(-c2cc(C3CCNCC3)[nH]n2)ccn1` get here?
inactive

Just curious, what result did `CNC(=O)COC(=O)NCCC1CCN(c2cccc(C)n2)CC1` get here?
inactive

Just curious, what result did Nc1nc(Cl)nc2c1ncn2[C@H]1C[C@H](O)[C@@H](CO)O1 [cladribine] get here?
active
